Tested on: E. faecalis ATCC 29212
protocol text: Broth microdilution MIC
Assay type: cell-based, Enterococcus faecalis
experimental setup: Enterococcus faecalis, ATCC29212, E. faecalis ATCC 29212; substance alone; read-out: MIC
readout type: MIC
Put your answer as a value accompanied by its unit after it.

Here's what some known entries look like.
CC(=O)NC[C@H]1CN(c2ccc(N3CCOCC3)c(F)c2)C(=O)O1 [Linezolid, linezolid, reference compound]: 4 µg/mL
CC[C@H]1OC(=O)[C@H](C)[C@@H](O[C@H]2C[C@@](C)(OC)[C@@H](O)[C@H](C)O2)[C@H](C)[C@@H](O[C@@H]2O[C@H](C)C[C@H](N(C)C)[C@H]2O)[C@](C)(O)C[C@@H](C)C(=O)[C@H](C)[C@@H](O)[C@]1(C)O [Erythromycin, erythromycin]: 2 µg/mL
CNC(C)C1CCC(N)C(OC2C(N)CC(N)C(OC3OCC(C)(O)C(NC)C3O)C2O)O1 (stereo not shown) [Gentamicin, gentamicin, reference compound]: 4 µg/mL

Given the entry CO[C@H]1/C=C/O[C@@]2(C)Oc3c(C)c(O)c4c(O)c(c(/C=N/N5CCN(C)CC5)c(O)c4c3C2=O)NC(=O)/C(C)=C\C=C\[C@H](C)[C@H](O)[C@@H](C)[C@@H](O)[C@@H](C)[C@H](OC(C)=O)[C@@H]1C [Rifampin, rifampin, reference compound] , report its measured MIC.
0.25 µg/mL
